All figures here come from ChEMBL document CHEMBL1806409.

Would you mind telling me the reported pIC50 of each entry?
# Test system: NCI-H460
# experimentDescription: Cytotoxicity against human H460 cells assessed as cell growth inhibition after 72 hrs by MTT assay
# Format: functional, cell-based
# conditionContext: NCI-H460, 72 h
One number for each entry, as −log10 of the molar value.

Would you be so kind as to report pIC50 for each listed record?
1. CCN(CC)CCCn1c(=O)c(=Cc2ccc3c(c2)OCO3)s/c1=C1\C(=O)Nc2ccc(C)cc21 (mixture of isomers)
2. CCN(CC)CCCn1c(=O)c(=Cc2ccc3c(c2)OCO3)s/c1=C1\C(=O)Nc2ccc(F)cc21 (mixture of isomers)

1. 5.73
2. 7.12

Would you be so kind as to report pIC50 for each listed record?
1. CCN(CC)CCCn1c(=O)c(=Cc2cc(OC)c(OC)c(OC)c2)s/c1=C1\C(=O)Nc2ccc(F)cc21 (mixture of isomers)
2. CN(C)CCn1c(=O)c(=Cc2ccc(O)cc2)s/c1=C1\C(=O)Nc2cc(F)ccc21 (mixture of isomers)
3. CN(C)CCn1c(=O)c(=Cc2ccc3c(c2)OCO3)s/c1=C1\C(=O)Nc2cc(F)ccc21

1: 6.11; 2: 5.84; 3: 5.55

Would you be so kind as to report pIC50 for each listed record?
1. CCN(CC)CCCn1c(=O)c(=Cc2ccc3c(c2)OCO3)s/c1=C1\C(=O)Nc2ccccc21 (mixture of isomers)
2. CN(C)CCn1c(=O)c(=Cc2ccc(F)c(F)c2)s/c1=C1\C(=O)Nc2ccc(F)cc21 (mixture of isomers)
3. CN(C)CCN1C(=O)/C(=C/c2ccc(O)cc2)SC1=S
4. CN(C)CCn1c(=O)c(=Cc2ccc(F)cc2F)s/c1=C1\C(=O)Nc2cc(F)ccc21 (mixture of isomers)
5. CCN(CC)CCCn1c(=O)c(=Cc2cc(OC)c(OC)c(OC)c2)s/c1=C1\C(=O)Nc2ccc(Cl)cc21 (mixture of isomers)
6. CCN(CC)CCCn1c(=O)c(=Cc2ccc(F)cc2F)s/c1=C1\C(=O)Nc2ccccc21 (mixture of isomers)
7. CCN(CC)CCCn1c(=O)c(=Cc2cc(OC)c(OC)c(OC)c2)s/c1=C1\C(=O)Nc2ccc(C)cc21 (mixture of isomers)

[5.99, 4.35, 4.34, 5.49, 5.52, 5.26, 5.57]

Would you be so kind as to report pIC50 for each listed record?
1. CN(C)CCn1c(=O)c(=Cc2ccc(F)c(F)c2)s/c1=C1\C(=O)Nc2cc(F)ccc21 (mixture of isomers)
2. COc1ccc(OC)c(C=c2s/c(=C3\C(=O)Nc4cc(F)ccc43)n(CCN(C)C)c2=O)c1 (mixture of isomers)
3. CN(C)CCn1c(=O)c(=Cc2ccc(O)cc2)s/c1=C1\C(=O)Nc2ccc(F)cc21 (mixture of isomers)

5.19
5.15
5.90
